# merged literature set: IC50 with cGMP-inhibited 3',5'-cyclic phosphodiesterase 3B (Homo sapiens, UniProt Q13370)
# Sequence (Q13370 whole entry): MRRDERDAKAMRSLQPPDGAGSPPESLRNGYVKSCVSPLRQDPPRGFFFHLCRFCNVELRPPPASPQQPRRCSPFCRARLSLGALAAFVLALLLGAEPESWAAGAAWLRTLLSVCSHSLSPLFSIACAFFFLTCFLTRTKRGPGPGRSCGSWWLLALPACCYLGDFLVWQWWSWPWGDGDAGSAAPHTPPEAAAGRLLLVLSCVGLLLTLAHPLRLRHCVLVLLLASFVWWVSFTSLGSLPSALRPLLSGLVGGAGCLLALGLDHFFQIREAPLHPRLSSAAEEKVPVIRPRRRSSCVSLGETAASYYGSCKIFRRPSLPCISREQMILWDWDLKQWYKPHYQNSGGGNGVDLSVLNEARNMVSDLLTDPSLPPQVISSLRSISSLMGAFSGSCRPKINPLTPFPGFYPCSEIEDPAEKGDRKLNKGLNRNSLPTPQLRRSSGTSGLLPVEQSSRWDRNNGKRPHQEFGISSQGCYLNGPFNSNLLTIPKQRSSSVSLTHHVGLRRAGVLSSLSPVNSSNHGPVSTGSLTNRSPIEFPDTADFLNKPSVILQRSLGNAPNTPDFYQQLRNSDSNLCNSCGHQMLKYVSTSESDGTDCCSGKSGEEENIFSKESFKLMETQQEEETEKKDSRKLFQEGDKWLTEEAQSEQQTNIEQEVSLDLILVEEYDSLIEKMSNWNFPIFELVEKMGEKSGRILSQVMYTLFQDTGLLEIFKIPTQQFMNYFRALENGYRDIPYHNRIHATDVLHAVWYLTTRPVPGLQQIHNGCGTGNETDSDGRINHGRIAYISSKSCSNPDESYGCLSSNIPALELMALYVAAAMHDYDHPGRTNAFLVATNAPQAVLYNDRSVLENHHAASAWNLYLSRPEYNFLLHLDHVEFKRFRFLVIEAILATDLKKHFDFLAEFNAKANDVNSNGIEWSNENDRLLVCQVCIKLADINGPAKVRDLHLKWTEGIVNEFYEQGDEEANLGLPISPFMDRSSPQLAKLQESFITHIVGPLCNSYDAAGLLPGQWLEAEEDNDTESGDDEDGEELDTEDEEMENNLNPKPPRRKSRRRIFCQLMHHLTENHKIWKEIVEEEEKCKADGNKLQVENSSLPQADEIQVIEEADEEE
Give bare numbers, in nM.

{"chemical_smiles": "COc1ccc(Cc2nccc3cc(OCCF)c(OC)cc23)cc1F", "IC50, nM": 1250}

# per-item lookup of IC50; items listed below
1. CCOC(=O)Nc1ccc(C2=NNC(=O)C[C@H]2C)cc1
2. Cc1cc(=O)[nH]c2ccc(OCc3cccc(C(=O)N4CCC(C)CC4)c3)cc12
3. O=C(O)c1ccc(-c2c(/C=C/c3ccc4ccccc4n3)nc3c(N4CCOCC4)ccnn23)cc1

[8.5, 1610, 6600]

----------
Target or system cGMP-inhibited 3',5'-cyclic phosphodiesterase 3B (Homo sapiens); metric pIC50; compiled from varied reports.
Give bare numbers, as −log10 of the molar value.

Worked cases, pIC50 given:
{"molecule": "Cc1cc(NC2=C(Cc3ccccc3)C(=O)CCC2)ccc1C1=NNC(=O)CC1C (stereo unspecified)", "pIC50": 8.59}
{"molecule": "COc1ccc(C(=O)N2CCN(c3ccc4c(c3)CCC(=O)N4)CC2)cc1OC", "pIC50": 4.84}
{"molecule": "CC(=O)Nc1ccc(C2=NNC(=O)C[C@H]2C)cc1", "pIC50": 7.43}
{"molecule": "COc1ccc(Cc2nccc3cc(OCCF)c(OC)cc23)cc1C", "pIC50": 5.78}
{"molecule": "COc1cccc(-c2csc(-n3cc(-c4nnn[nH]4)cn3)n2)c1", "pIC50": 4.60}

Record pIC50 per entry; entries follow.
1. CC1CC(=O)NN=C1c1ccc(NC2=C(Cc3cccc(I)c3)C(=O)CCC2)cc1 (stereo unspecified)
2. Cc1ccc(-c2csc(-n3cc(-c4nnn[nH]4)cn3)n2)cc1
3. CC1=C(Nc2ccc(C3=NNC(=O)C[C@H]3C)cc2)CCCC1=O
4. Cc1cc(=O)[nH]c2ccc(OCc3cccc(C(=O)N4CCN(CCO)CC4)c3)cc12
5. COc1cc2ccnc(Cc3ccc(OCCOCCF)c(OC)c3)c2cc1OC
6. Cc1cc(C2=NNC(=O)OC2)ccc1-c1cccnc1
7. CC1CC(=O)NN=C1c1ccc(NC2=C(Cc3cccc([N+](=O)[O-])c3)C(=O)CCC2)cc1 (stereo unspecified)

1. 9.96
2. 4.78
3. 8.06
4. 5.55
5. 5.60
6. 7.36
7. 9.03

----------
Record set: IC50 | cGMP-inhibited 3',5'-cyclic phosphodiesterase 3B (Homo sapiens, UniProt Q13370) | literature, multiple sources.

For each entry beneath this line, provide reported IC50.
1. C[C@@H]1CC(=O)NN=C1c1ccc(NC(=O)c2ccccc2C(F)(F)F)cc1
2. CC1CC(=O)NN=C1c1ccc(/N=C2\CCCC(O)=C2Cc2ccccc2)c(F)c1 (stereo unspecified)
3. COc1ccc(CC2=C(Nc3ccc(C4=NNC(=O)CC4C)cc3)CCCC2=O)cc1 (stereo unspecified)
4. CCCOCCn1c(=O)c(N2CCN(CCO)CC2)nc2cnc(-c3ccc(OC)nc3)cc21

["5 nM", "0.26 nM", "0.7 nM", "> 2000 nM"]

For each of the compounds below, state IC50.
1. CC1CC(=O)NN=C1c1cc(F)c(NC2=C(Cc3ccccc3)C(=O)CCC2)cc1F (stereo unspecified)
2. COc1cc2c(cc1OC1CCCC1)CN(S(=O)(=O)c1ccc(NC(C)=O)cc1)CC2
3. O=C(Nc1ccccc1Cl)c1ccc(OC(F)F)c(OCC2CC2)c1
4. Cc1cc(=O)[nH]c2ccc(OCc3cccc(C(=O)N4CCC(C(=O)O)CC4)c3)cc12
5. CC1CC(=O)NN=C1c1ccc(NC2=C(Cc3ccccc3)C(=O)CCC2)cc1Cl (stereo unspecified)
6. CC1(C)C(=O)NN=C1c1ccc(NC2=C(Cc3ccccc3Cl)C(=O)CCC2)cc1Cl
7. Cc1cc(=O)[nH]c2ccc(OCc3cccc(C(=O)N4CCC(O)CC4)c3)cc12

["0.62 nM", "> 100000 nM", "> 100000 nM", "1280 nM", "4.8 nM", "6.3 nM", "910 nM"]
